Cited source for all entries: patent US7138361B2

- Test system: cocklebur (Xanthium strumarium)
- test summary: Test B postemergence
- Type: in vivo
- experimental parameters: Rate 500 g/ha, scale 0 to 100, 0 is no effect, 100 is complete control, 13 to 15 days
Catalogue of compounds with associated Plant response rating, Cocklebur
measurement label: Plant response rating, Cocklebur

INSERT INTO assay_data (compound, test_target, measurement_label, endpoint_result) VALUES
  ('CCC(C)c1ccn(C2CCN(c3cccc(OC(C)C)c3)C2=O)n1 (stereo not shown) [Compound 83]', 'cocklebur (Xanthium strumarium)', 'Plant response rating, Cocklebur', 10),
  ('CCC(C)Oc1cccc(N2CCC(n3ccc(C(C)(C)C)n3)C2=O)c1 (stereo not shown) [Compound 127]', 'cocklebur (Xanthium strumarium)', 'Plant response rating, Cocklebur', 60),
  ('CC(C)Oc1cccc(N2CCC(n3ccc(C(C)C)n3)C2=O)c1 (stereo not shown) [Compound 82]', 'cocklebur (Xanthium strumarium)', 'Plant response rating, Cocklebur', 20),
  ('CC(C)c1ccn(C2SCN(c3cccc(OC(F)(F)F)c3)C2=O)n1 (stereo not shown) [Compound 31]', 'cocklebur (Xanthium strumarium)', 'Plant response rating, Cocklebur', 70);

---

- Tested on: velvetleaf (Abutilon theophrasti)
- test summary: Test C postemergence
- Format: in vivo
- experimental parameters: Rate 125 g/ha, scale 0 to 100, 0 no effect, 100 complete control
- Source text: […]
measurement label: Plant response rating, Velvetleaf

INSERT INTO measurements (molecule, endpoint_result) VALUES
  ('CCOc1cc(N2CCC(n3ccc(C(C)(C)C)n3)C2=O)ccc1C (stereo not shown)', 60),
  ('CCC(C)c1ccn(C2SCN(c3cccc(C(F)(F)F)c3)C2=O)n1 (stereo not shown)', 30),
  ('O=C1C(n2ccc(C3CCC3)n2)SCN1c1cccc(OC(F)(F)F)c1 (stereo not shown)', 0),
  ('CCC(CC)c1ccn(C2CCN(c3ccc(C)c(OC)c3)C2=O)n1 (stereo not shown)', 20);

---

Catalogue of compounds with associated Plant response rating, Soybean
- Tested on: soybean (Glycine max)
- test summary: Test C postemergence
- Format: in vivo
- experimental parameters: Rate 62 g/ha, scale 0 to 100
measurement label: Plant response rating, Soybean

INSERT INTO results (compound, endpoint_result) VALUES
  ('COc1cc(N2CCC(n3ccc(C(C)(C)C)n3)C2=O)ccc1Cl (centres unmarked)', 50),
  ('COc1cc(N2CCC(n3ccc(C(C)C)n3)C2=O)ccc1Cl (centres unmarked)', 30),
  ('CCC(CC)c1ccn(C2OCN(c3cccc(OC(F)F)c3)C2=O)n1 (centres unmarked)', 20),
  ('CCCC(C)c1ccn(C2OCN(c3cccc(OC(F)(F)F)c3)C2=O)n1 (centres unmarked)', 0),
  ('O=C1C(n2ccc(C3CCC3)n2)SCN1c1cccc(OC(F)(F)F)c1 (centres unmarked)', 0);

---

- Test system: soybean (Glycine max)
- test summary: Test C preemergence
- Type: in vivo
- experimental parameters: Preemergence; Rate 500 g/ha; scale 0 to 100
measurement label: Plant response rating, Soybean

INSERT INTO assay_data (compound, test_target, endpoint_result) VALUES
  ('CCC(C)c1ccn(C2SCN(c3cccc(OC(F)(F)F)c3)C2=O)n1 (stereo not shown)', 'soybean (Glycine max)', 60),
  ('O=C1C(n2ccc(C3CCC3)n2)SCN1c1cccc(OC(F)(F)F)c1 (stereo not shown)', 'soybean (Glycine max)', 0),
  ('CCC(C)c1ccn(C2SCN(c3cccc(C(F)(F)F)c3)C2=O)n1 (stereo not shown)', 'soybean (Glycine max)', 60),
  ('CCC(CC)c1ccn(C2SCN(c3cccc(C(F)(F)F)c3)C2=O)n1 (stereo not shown)', 'soybean (Glycine max)', 60);

---

Catalogue of compounds with associated Plant response rating, Johnsongrass
- Tested on: johnsongrass (Sorghum halepense)
- test summary: Test C postemergence
- Type: in vivo
- experimental parameters: Rate 250 g/ha, scale 0 to 100 (0 no effect, 100 complete control)
measurement label: Plant response rating, Johnsongrass

INSERT INTO measurements (compound, measurement_label, endpoint_result) VALUES
  ('COc1cc(N2CCC(n3ccc(C(C)C)n3)C2=O)ccc1Br (centres unmarked)', 'Plant response rating, Johnsongrass', 50),
  ('CCC(C)c1ccn(C2SCN(c3cccc(OC(F)(F)F)c3)C2=O)n1 (centres unmarked)', 'Plant response rating, Johnsongrass', 20),
  ('CCC(C)c1ccn(C2CCN(c3ccc(Br)c(OC)c3)C2=O)n1 (centres unmarked)', 'Plant response rating, Johnsongrass', 30),
  ('CCOc1cc(N2CCC(n3ccc(C(C)(C)C)n3)C2=O)ccc1C (centres unmarked)', 'Plant response rating, Johnsongrass', 0),
  ('CCCOc1cc(N2CCC(n3ccc(C(C)(C)C)n3)C2=O)ccc1C (centres unmarked)', 'Plant response rating, Johnsongrass', 0);

---

- Test system: duck salad (Heteranthera limosa)
- test summary: Test C flooded paddy test
- Type: in vivo
- experimental parameters: flooded paddy test; Rate 62 g/ha; visually evaluated after 12 to 14 days; 0 = no effect, 100 = complete control
measurement label: Plant response rating (scale 0 to 100), Ducksalad

INSERT INTO assay_data (molecule, endpoint_result) VALUES
  ('COc1cc(N2CCC(n3ccc(C(C)(C)C)n3)C2=O)cc2ccccc12 (stereo not shown) [Compound 136]', 0),
  ('COc1cc(C)nc(N2CCC(n3ccc(C(C)(C)C)n3)C2=O)n1 (stereo not shown) [Compound 137]', 0),
  ('CCOc1cccc(N2CCC(n3ccc(C(C)(C)C)n3)C2=O)c1 (stereo not shown) [Compound 130]', 90),
  ('CC(C)(C)c1ccn(C2OCN(c3cccc(OC(F)F)c3)C2=O)n1 (stereo not shown) [Compound 133]', 50);

---

- System: rice (Oryza saliva)
- test summary: Test C flooded paddy test
- Type: in vivo
- experimental parameters: flooded paddy test; Rate 62 g/ha; visually evaluated after 12 to 14 days; 0 = no effect, 100 = complete control
- Experimental: At the same time, plants selected from these crop and weed species and also winter barley (Hordeum vulgare), blackgrass (Alopecurus myosuroides), canary grass (Phalaris minor), chickweed (Stellaria media), downy brome (Bromus tectorum), green foxtail (Setaria viridis), Italian ryegrass (Lolium multiflorum), wheat (Triticum aestivum), wild oat (Avena fatua) and windgrass (Apera spica-venti) were treated with postemergence applications of some of the test chemicals formulated in the same manner. […]
Catalogue of compounds with associated Plant response rating (scale 0 to 100), Rice
measurement label: Plant response rating (scale 0 to 100), Rice

INSERT INTO measurements (compound, endpoint_result) VALUES
  ('CC(C)(C)c1ccn(C2OCN(c3cccc(OC(F)F)c3)C2=O)n1 (stereo not drawn) [Compound 133]', 60),
  ('COc1cc(N2CCC(n3ccc(C(C)(C)C)n3)C2=O)ccc1Br (stereo not drawn) [Compound 141]', 0),
  ('CC(C)(C)C1=NN(C2CCN(c3cccc(C(F)(F)F)c3)C2=O)CC1 (stereo not drawn) [Compound 135]', 0),
  ('CCC(CC)c1ccn(C2CCN(c3ccc(Br)c(OC)c3)C2=O)n1 (stereo not drawn) [Compound 143]', 0),
  ('COc1cc(C)nc(N2CCC(n3ccc(C(C)(C)C)n3)C2=O)n1 (stereo not drawn) [Compound 137]', 0),
  ('CCCC(C)c1ccn(C2OCN(c3cccc(OC(F)F)c3)C2=O)n1 (stereo not drawn) [Compound 132]', 0);

---

- System: redroot pigweed (Amaranthus retroflexus)
- test summary: Test A postemergence, sprayed to runoff
- Assay type: in vivo
- experimental parameters: Rate 500 g/ha, approx. eleven days
Catalogue of compounds with associated Plant response rating (visual injury vs untreated controls)
measurement label: Plant response rating (visual injury vs untreated controls)

INSERT INTO measurements (compound, endpoint_result) VALUES
  ('O=C1C(n2cccn2)CCN1c1cccc(C(F)(F)F)c1 (centres unmarked)', 0),
  ('CC(C)(C)c1nn(C2CCN(c3cccc(C(F)(F)F)c3)C2=O)cc1Cl (centres unmarked)', 0),
  ('O=C1C(n2cc(Cl)c(C3CC3)n2)CCN1c1cccc(C(F)(F)F)c1 (centres unmarked)', 0),
  ('O=C1C(n2ccc(C3CC3)n2)OCN1c1cccc(C(F)(F)F)c1 (centres unmarked)', 20),
  ('O=C1C(n2ccc(C3CC3)n2)SCN1c1cccc(C(F)(F)F)c1 (centres unmarked)', 40);

---

- Test system: pigweed (Amaranthus retroflexus)
- test summary: Test B preemergence
- Assay type: in vivo
- experimental parameters: Preemergence, Rate 500 g/ha; scale 0 to 100, 0 no effect, 100 complete control
- Method: […] At the same time, plants selected from these crop and weed species and also blackgrass (Alopecurus myosuroides), wheat (Triticum aestivum) and wild oat (Avena fatua) were treated with postemergence applications of test chemicals formulated in the same manner. […] Treated plants and controls were maintained in a greenhouse for 13 to 15 days, after which time all species were compared to controls and visually evaluated. […]
Catalogue of compounds with associated Plant response rating, Pigweed
measurement label: Plant response rating, Pigweed

INSERT INTO measurements (compound, endpoint_result) VALUES
  ('CC(C)(C)c1ccn(C2CCN(c3cc(C(F)(F)F)cc(C(F)(F)F)c3)C2=O)n1 (stereo not shown)', 0),
  ('CCC(CC)c1ccn(C2CCN(c3ccc(Cl)c(OC)c3)C2=O)n1 (stereo not shown)', 100),
  ('CCCC(C)c1ccn(C2SCN(c3cccc(C(F)(F)F)c3)C2=O)n1 (stereo not shown)', 100),
  ('O=C1C(n2cccn2)SCN1c1cccc(C(F)(F)F)c1 (stereo not shown)', 0),
  ('CCCC(C)c1ccn(C2OCN(c3cccc(OC(F)(F)F)c3)C2=O)n1 (stereo not shown)', 100),
  ('CSc1cccc(N2CCC(n3ccc(C(C)(C)C)n3)C2=O)c1 (stereo not shown)', 100),
  ('CCC(C)Oc1cccc(N2CCC(n3ccc(C(C)(C)C)n3)C2=O)c1 (stereo not shown)', 100),
  ('CCC(CC)c1ccn(C2SCN(c3cccc(C(F)(F)F)c3)C2=O)n1 (stereo not shown) [Compound 25]', 100),
  ('CC(C)(C)c1ccn(C2SCN(c3cccc(OC(F)F)c3)C2=O)n1 (stereo not shown)', 100),
  ('COC(=O)c1cccc(N2CCC(n3ccc(C(C)(C)C)n3)C2=O)c1 (stereo not shown)', 100),
  ('CC(C)(C)c1ccn(C2CCN(c3cccc(Cl)c3)C2=O)n1 (stereo not shown)', 100),
  ('CCCCC(CCCC)c1ccn(C2OCN(c3cccc(C(F)(F)F)c3)C2=O)n1 (stereo not shown)', 100),
  ('CCOc1ccn(C2CCN(c3cccc(C(F)(F)F)c3)C2=O)n1 (stereo not shown)', 0),
  ('CCC(C)Oc1ccn(C2CCN(c3cccc(C(F)(F)F)c3)C2=O)n1 (stereo not shown)', 0),
  ('COc1cc(N2CCC(n3ccc(C(C)C)n3)C2=O)ccc1C (stereo not shown)', 100),
  ('O=C1C(n2ccc(C3CCCCC3)n2)SCN1c1cccc(C(F)(F)F)c1 (stereo not shown)', 30),
  ('CCCCC(CCCC)c1ccn(C2SCN(c3cccc(C(F)(F)F)c3)C2=O)n1 (stereo not shown)', 0),
  ('Cc1ccc(N2CCC(n3ccc(C(C)(C)C)n3)C2=O)cc1OC(C)C (stereo not shown)', 100),
  ('Cc1c(F)cc(N2CCC(n3ccc(C(C)(C)C)n3)C2=O)cc1Br (stereo not shown)', 100),
  ('CCCC(C)c1ccn(C2SCN(c3cccc(OC(F)(F)F)c3)C2=O)n1 (stereo not shown)', 100),
  ('CC(C)c1ccn(C2OCN(c3cccc(OC(F)(F)F)c3)C2=O)n1 (stereo not shown)', 100),
  ('CCC(CC)c1ccn(C2OCN(c3cccc(OC(F)(F)F)c3)C2=O)n1 (stereo not shown)', 100),
  ('CC(C)(C)c1ccn(C2CCN(c3cccc(SC(F)(F)F)c3)C2=O)n1 (stereo not shown)', 80),
  ('Cc1cn(C2CCN(c3cccc(C(F)(F)F)c3)C2=O)nc1C(C)C (stereo not shown)', 0),
  ('CCC(C)c1ccn(C2CCN(c3cccc(OC)c3)C2=O)n1 (stereo not shown)', 100),
  ('Cc1ccc(N2CCC(n3ccc(C(C)(C)C)n3)C2=O)cc1I (stereo not shown)', 100),
  ('CCC(CC)c1ccn(C2SCN(c3cccc(C(F)(F)F)c3)C2=O)n1 (stereo not shown) [Compound 21]', 90),
  ('Cc1cc(N2CCC(n3ccc(C(C)(C)C)n3)C2=O)cc(Br)c1C (stereo not shown)', 100),
  ('CC(C)(C)c1ccn(C2SCN(c3cccc(C(F)(F)F)c3)C2=O)n1 (stereo not shown)', 100),
  ('CCCC(C)c1ccn(C2OCN(c3cccc(OC(F)F)c3)C2=O)n1 (stereo not shown)', 100),
  ('CC(C)Oc1cccc(N2CCC(n3ccc(C(C)(C)C)n3)C2=O)c1 (stereo not shown)', 100),
  ('Cc1c(Cl)cc(N2CCC(n3ccc(C(C)(C)C)n3)C2=O)cc1Cl (stereo not shown)', 90),
  ('CCOc1cccc(N2CCC(n3ccc(C(C)CC)n3)C2=O)c1 (stereo not shown)', 100),
  ('COc1cc(OC)cc(N2CCC(n3ccc(C(C)(C)C)n3)C2=O)c1 (stereo not shown)', 100),
  ('COc1cccc(N2CCC(n3ccc(C(C)(C)C)n3)C2=O)c1 (stereo not shown)', 100),
  ('CC(C)c1ccn(C2SCN(c3cccc(OC(F)F)c3)C2=O)n1 (stereo not shown)', 100),
  ('CCCC(C)c1ccn(C2OCN(c3cccc(C(F)(F)F)c3)C2=O)n1 (stereo not shown)', 100);
